Source listed as the supplement of paper PMC10126150.

Tested on: ATP;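 note: ATP exposure 15 min at 22 °C before imaging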
method_summary: switch fluorescence ratio, 500 uM ATP over buffer (Cy3 cluster intensity, sum of 5 cycles each) (fold (ratio)); higher = stronger signal-on switching upon ATP binding; sequences stand for … in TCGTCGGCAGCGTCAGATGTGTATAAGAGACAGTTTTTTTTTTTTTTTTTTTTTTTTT…TC
measurement_setup: aptamer strand: ATP DNA aptamer (quencher-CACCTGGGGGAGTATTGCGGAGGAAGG + anchor), 100 nM annealed; ATP concentration: 500 uM
Label Y for high-side switch fluorescence ratio (at or above 1) and N for low-side switch fluorescence ratio (below it).

Field: example entries. Status: answers known.
INSERT INTO results (seq, assigned_label) VALUES
  ('ATATTGGTAC', 'Y'),
  ('AAAAAGATGA', 'N'),
  ('GGTACCTTAG', 'Y'),
  ('TAGAGGAGTG', 'N'),
  ('GGTAATAAGG', 'Y');

Qu. Textbook exercise: given the entry `TAGTCATTTG` , state whether its switch fluorescence ratio is greater than or equal to 1.
Ans. N

Qu. # repeat for `TTTTATTTA`
Ans. N

---

System: ATP;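 note: ATP exposure 15 min at 22 °C before imaging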
method_summary: switch fluorescence ratio, 500 uM ATP over buffer (Cy3 cluster intensity, sum of 5 cycles each) (fold (ratio)); higher = stronger signal-on switching upon ATP binding; sequences stand for … in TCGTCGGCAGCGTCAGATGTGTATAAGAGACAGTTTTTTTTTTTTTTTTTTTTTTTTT…TC
measurement_setup: aptamer strand: ATP DNA aptamer (quencher-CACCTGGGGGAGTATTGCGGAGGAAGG + anchor), 100 nM annealed; ATP concentration: 500 uM
// reported switch fluorescence ratio per item
Returns: the value as a bare number; no unit string appended.

Qu. What value of switch fluorescence ratio has been recorded for this entry: `ATACAGCGA`
Ans. 1.07

Qu. Next: `GTAGCGAGAG`
Ans. 2.11

Qu. Now try `AGGGTTGGCT` .
Ans. 1.02

Qu. Try this sequence next: `CCACGGGTTA`
Ans. 1.05

Qu. Please answer likewise for `GGAGTGTTTC`
Ans. 1.01

---

Tested on: ATP;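 note: ATP exposure 15 min at 22 °C before imaging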
method_summary: switch fluorescence ratio, 500 uM ATP over buffer (Cy3 cluster intensity, sum of 5 cycles each) (fold (ratio)); higher = stronger signal-on switching upon ATP binding; sequences stand for … in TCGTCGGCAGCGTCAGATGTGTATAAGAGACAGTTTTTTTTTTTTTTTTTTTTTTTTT…TC
measurement_setup: aptamer strand: ATP DNA aptamer (quencher-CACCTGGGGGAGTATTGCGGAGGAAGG + anchor), 100 nM annealed; ATP concentration: 500 uM
assay_endpoint: switch fluorescence ratio
Response field accepts a number only; no unit should be typed.

INSERT INTO assay_data (seq, reported) VALUES
  ('TTAAGGAGCG', 1.04),
  ('TACAAGGGTA', 1.01),
  ('CATTTAGGAT', 0.985),
  ('ACGGTGTATG', 0.989),
  ('ATGCTATGTA', 1.01);

Qu. What switch fluorescence ratio value was documented for this sequence, `TTTGGCCTAC` ?
Ans. 1.01

Qu. Now try `GGCTGTAAGT` .
Ans. 0.984

---

Listed below: switch fluorescence ratio values for each entry.
Tested on: ATP;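 note: ATP exposure 15 min at 22 °C before imaging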
method_summary: switch fluorescence ratio, 500 uM ATP over buffer (Cy3 cluster intensity, sum of 5 cycles each) (fold (ratio)); higher = stronger signal-on switching upon ATP binding; sequences stand for … in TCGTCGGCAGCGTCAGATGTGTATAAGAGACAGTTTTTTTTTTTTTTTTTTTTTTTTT…TC
measurement_setup: aptamer strand: ATP DNA aptamer (quencher-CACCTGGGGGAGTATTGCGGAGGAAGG + anchor), 100 nM annealed; ATP concentration: 500 uM
API doc: respond with a numeric literal and nothing else, no unit.

INSERT INTO results (seq, reported) VALUES
  ('TTAGGATATA', 1);

Qu. Bench note: what switch fluorescence ratio did `CATAGGCTGG` show?
Ans. 0.985

Qu. `TGGTTTTTTT` ?
Ans. 0.992
